The measurements presented in this section are drawn from patent US20110306035A1.

- TEST SYSTEM: recombinant HRV 3C protease (Human rhinovirus 14)
- Construct: Reactions were performed at 4 μM PEP1 and 50 nM recombinant HRV 3C protease
- Sequence (P03303 1538-1719): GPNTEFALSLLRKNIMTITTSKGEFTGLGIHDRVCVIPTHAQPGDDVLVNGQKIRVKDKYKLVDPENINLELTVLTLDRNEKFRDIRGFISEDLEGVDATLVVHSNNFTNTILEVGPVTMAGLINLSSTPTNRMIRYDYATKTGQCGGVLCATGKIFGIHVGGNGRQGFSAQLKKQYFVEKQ
- ASSAY PROCEDURE: HRV 3C protease activity with inhibitors (Buffer+3C, PEP1)
- Type: biochemical
- CONDITIONS: 4 μM PEP1; 50 nM recombinant HRV 3C protease
Square brackets hold non-standard residues; d marks the D form. Peptide text beside a SMILES is read from it. * marks the point of attachment. Sta = CC(C)C[C@H](N)[C@@H](O)CC(=O)O; Isovaleryl = CC(C)CC(=O)*
ENDPOINT NAME: inhibition of HRV 3C protease activity

>  <COMPOUND>
CC(C)CC(=O)N[C@H](C(=O)N[C@H](C(=O)N[C@@H](CC(C)C)[C@@H](O)CC(=O)N[C@@H](C)C(=O)N[C@@H](CC(C)C)[C@@H](O)CC(=O)O)C(C)C)C(C)C [Pepstatin A] (Isovaleryl-VV[Sta]A[Sta]-OH)

>  <TEST SYSTEM>
recombinant HRV 3C protease (Human rhinovirus 14)

>  <ENDPOINT NAME>
inhibition of HRV 3C protease activity

>  <REPORTED>
did not inhibit

$$$$
>  <COMPOUND>
CC(C)[C@@H]1C(=O)N(S(C)(=O)=O)[C@@H]2CCN(C(=O)/C=C/CN3CCCCC3)[C@H]21.Cl [GW311616A]

>  <TEST SYSTEM>
recombinant HRV 3C protease (Human rhinovirus 14)

>  <ENDPOINT NAME>
inhibition of HRV 3C protease activity

>  <REPORTED>
did not inhibit

$$$$
>  <COMPOUND>
CC(C)C[C@H](NC(=O)[C@@H](O)[C@H](N)Cc1ccccc1)C(=O)O

>  <TEST SYSTEM>
recombinant HRV 3C protease (Human rhinovirus 14)

>  <ENDPOINT NAME>
inhibition of HRV 3C protease activity

>  <REPORTED>
did not inhibit

$$$$
